Ref: patent US20100069450A1

Measured Purity % of individual entries
- assay comment: Stability test of BTG 1640 salts: purity under preservation conditions
- Type: physicochemical
- measurement context: T = 30° C., humidity 65% RH; time 0
Structures can show the parent of a compound that is named as a salt.
property: Purity % (%)

1) CN1OC2CCCC(=O)C2C1Cc1ccccc1.CS(=O)(=O)O (centres unmarked) [BTG 1640 methanesulphonate]    99.6
2) CN1OC2CCCC(=O)C2C1Cc1ccccc1.O=C(O)/C=C\C(=O)O (centres unmarked) [BTG 1640 maleate]    99.8
3) CN1OC2CCCC(=O)C2C1Cc1ccccc1.Cl (centres unmarked) [BTG 1640 hydrochloride]    99.7
4) CN1OC2CCCC(=O)C2C1Cc1ccccc1 (centres unmarked) [BTG 1640 fumarate]    99.5
5) CN1OC2CCCC(=O)C2C1Cc1ccccc1.O=C(O)CCC(=O)O (centres unmarked) [BTG 1640 succinate]    99.2
